Tested on: HCT-116 colon
Experiment: NCI tumour cell line growth inhibition, 48 h; in the data active = GI50 below about 0.43 µM; inactive = the rest
Permitted responses: YES = active, NO = inactive

Record excerpt, results attached:
| molecule | class-label |
| --- | --- |
| C[C@@H](O)[C@@H](C)Oc1nc(Nc2ccc(S(=N)(=O)C3CC3)cc2)ncc1C(F)(F)F (some centres not stated) | YES |
| C=CC(=O)N[C@@H]1CN(c2nc(Nc3cn(C)nc3OC)c3ncn(C)c3n2)C[C@H]1F | NO |
| CN(C)c1ccc(C(=S)c2ccc(N(C)C)cc2)cc1 | NO |

Hey, what did the test say about O=C(Nc1ccc(OS(=O)(=O)c2ccc(F)cc2)cc1)C12CC3CC(CC(C3)C1)C2 ? NO

Hey, what did the test say about CNC(=O)c1cc(Oc2ccc3nc(NC(=O)Nc4ccc(CN5CCOCC5)c(C(F)(F)F)c4)sc3c2)ccn1 ? NO

Hey, what did the test say about CCN(C(=O)N1CCN(c2cc3c(cc2F)c(=O)c(C(=O)O)cn3C2CC2)CC1)c1nc(-c2ccccc2)cs1 ? NO

====

Test system: EKVX NSCLC
Experiment: NCI tumour cell line growth inhibition, 48 h
observation-type: TGI

These recorded examples may help you get a feel for the data.
| compound | TGI |
| --- | --- |
| Cc1cc(F)c(C(=O)Nc2cccc(-c3nncn3C(C)C)n2)cc1-n1cnc(C2CC2)c1 | 52.3 µM |
| COc1cc(C2CC(C)(N3CCOCC3)Oc3cc4c(cc32)OCO4)cc(OC)c1OC (stereo unspecified) | > 100 µM |
| O=c1oc2cc(O)ccc2c2[nH]c3cc(O)ccc3c12 | 90.1 µM |
| CCOC(=O)c1oc2c(OC)ccc3c2c1CCC3 | > 100 µM |
| COc1cccc(/C=N/[N-]C(=O)c2ccncc2)c1[O-].[Mn+2].[OH3+] | > 100 µM |
| N#Cc1ncc(C(Cl)Cl)nc1Cl | 3.27 µM |

Quick check: TGI of NC(N)=NN=c1c(=O)c2ccccc2c1=O ? 34.8 µM

Quick check: TGI of COC1(OC)CC2C(=O)N(Cc3ccccc3)C1C(S(=O)(=O)c1ccccc1)C2C(C)S(=O)(=O)c1ccccc1 (stereo unspecified) ? > 100 µM

Quick check: TGI of NC1=NN(c2ccccc2)C(=O)C1C(=O)C(=O)Nc1ccc(Cl)cc1 (stereo unspecified) ? > 100 µM

Quick check: TGI of C/C(NNC(=O)c1ccccc1O)=C1\C=Nc2ccccc2S1 ? > 100 µM

Quick check: TGI of O=c1cc(-c2ccc(Cl)cc2)[nH]c2ccccc12 ? > 100 µM

====

Entries and their TGI
System: U251 CNS
Assay: NCI tumour cell line growth inhibition, 48 h

These recorded examples may help you get a feel for the data.
| compound | assayed-system | TGI |
| --- | --- | --- |
| NC(CCSCC(F)(F)F)C(=O)O (stereo unspecified) | U251 CNS | > 100 µM |
| CC(C)N(C(=O)C12C3C4C1C1C2C3C41C(=O)C(C)(C)C)C(C)C (stereo unspecified) | U251 CNS | > 100 µM |
| O=C1/C(=C/c2cccnc2)SC(=S)N1Cc1ccco1 | U251 CNS | 30.6 µM |
| CN(C(=O)[C@H](NC(=O)OCc1ccccc1)c1ccccc1)C1CCCCC1N1CCCC1 (stereo partly specified) | U251 CNS | > 100 µM |

Quick check: TGI of O=C1OC(CC(=O)c2ccc(F)cc2)C(Cl)=C1Cl (stereo unspecified) ? 34.3 µM

Quick check: TGI of CCCCC(C(=O)C(=O)Nc1ccc(C)cc1C)C(=O)C(C)C (stereo unspecified) ? > 100 µM
